Data provenance is PubChem BioAssay (NCI).

Recorded TGI values for a group of molecules are listed next.
test system: SK-MEL-2 melanoma; experiment: NCI tumour cell line growth inhibition, 48 h

Before answering, review these 3 worked examples.
Cc1c(NC(=O)Nc2c(Cl)cccc2Cl)c(=O)n(-c2ccccc2)n1C; > 100 µM
CC(=O)CCc1ccc(Oc2c3c(nc4ccccc24)OCC3)cc1; > 100 µM
CC(C)N1C(C)[C@@H](c2ccccc2)O[P@@]1(=O)CC1=CCCCC1 (stereo partly specified); > 100 µM

In plain terms, C=C1C2CC3CCC2C(OC(=O)c2ccccc2C(=O)O)C13 (stereo unspecified) has a documented TGI of > 100 µM

# molecule O=C1C(c2c(O)[nH]c3ccc(Cl)cc23)=Nc2ccccc21 ; its TGI = > 26.3 µM

Query O=c1[nH]nc(-c2ccccc2)n1-c1cccc([N+](=O)[O-])c1 yields TGI of > 100 µM

----------
system: UO-31 renal; assay: NCI tumour cell line growth inhibition, 48 h
We begin with a simple list: items and their reported TGI.

// below: answered compounds
CC(C)[C@@H]1CC[C@@H](C)C[C@H]1OC(=O)/C=C1\C(C(=O)O[C@@H]2C[C@H](C)CC[C@H]2C(C)C)[C@H]2C=C[C@@H]1O2 (stereo not given in full); > 100 µM
c1ccc(C2=NN=C3C(c4ccccc4)=Nc4ccccc4N3C2)cc1; > 59.4 µM
O=C1C(Cl)=C(Cl)C(=O)N1c1cccc(C(F)(F)F)c1; > 100 µM
Cn1c2c(c3ccccc3c1=O)C(=O)c1ccccc1-2; > 100 µM

Now consider the entry below.
Value of TGI reported for the compound C[C@@]1(C(=O)O)CCC[C@]2(C)C1CC[C@]13C[C@@](O)(CO)[C@](O)(CC[C@]12O)C3 (stereo not given in full) is > 100 µM

----------
tested on: SN12K1 renal; assay: NCI tumour cell line growth inhibition, 48 h
Each entry below carries its recorded TGI.

Reference set, count: 2
CCCS(=O)c1nc(COC(=O)NC)c(COC(=O)NC)n1C (stereo not drawn); > 100 µM
c1ccc2c(c1)SP1Sc3ccccc3P21 (stereo not drawn); > 100 µM

Kindly note: SN12K1 renal, c1ccc2c(c1)SCCc1cn[nH]c1-2 , TGI value reported: > 100 µM

----------
system: CAKI-1 renal; test: NCI tumour cell line growth inhibition, 48 h
READOUT: TGI

// field: TGI; key: Cn1cc(C2=C(c3cc[nH]c3)C(=O)NC2=O)c2ccccc21 ; value = > 25 µM

So, O=C(NNc1ccccc1)c1ccc(Cl)c(Cl)c1 ? Its TGI was > 59.5 µM

Query Cc1c(NC(=O)Nc2c(Cl)cccc2Cl)c(=O)n(-c2ccccc2)n1C yields TGI of > 100 µM

Reported TGI for CNCC(=O)NC(CO)C(=O)NC(CO)C(=O)NC1C(C(N)=O)OC(n2ccc(N)nc2=O)C(O)C1O (centres undefined) was > 50 µg/mL

----------
test system: HT29 colon; experiment: NCI tumour cell line growth inhibition, 48 h
The compounds listed here are annotated with their TGI.

// solved cases for TGI follow
CNC(=O)CCCNC(=O)CCCCC(=O)N(C)C; > 100 µM
CC(C)(C)[Si](C)(C)OCCc1ccccc1C1CC2(S(=O)(=O)c3ccccc3)ON1CC2S(=O)(=O)c1ccccc1 (stereo not drawn); > 100 µM

The record that follows has no TGI shown yet.
Item: COc1ccc(/C=C2\Sc3nnc(-c4ccccc4)n3N=C2c2cc(F)c(Cl)cc2Cl)cc1OC | TGI: > 100 µM

----------
system: OVCAR-4 ovarian; experiment: NCI tumour cell line growth inhibition, 48 h
READOUT: TGI (µM)
Supply the numeric figure in µM, leaving out any unit text.

Worked examples, 3 molecules total:
CCCCCCCCCCCCCCCCCCOCC(C[N+]1(C)CCC(O)CC1)OCC (centres undefined); 18
Cc1nc2c(O)c3c(c(O)c2nc1C)C1C=CC3CC1; 6.22
Cc1cc(Cl)nc(N(CCCNc2ccnc3cc(Cl)ccc23)Cc2cccs2)n1; 25.6

Here's the next entry for you.
Summary for this molecule, O=C(N=Nc1c(Cl)c(O)c2ccccc2c1O)C(=O)Nc1cccc(C(F)(F)F)c1 : TGI is 26.9

----------
Entries annotated with measured TGI
test system: SK-OV-3 ovarian; experiment: NCI tumour cell line growth inhibition, 48 h

CC(C)(C)C(=O)c1c(C(F)(F)F)n([O-])c2cc(Cl)c(Cl)cc2[n+]1=O; 2.07 µM
CCN(CC)/[N+]([O-])=N/OCOC; > 100 µM

CN(C)CCNC(=O)c1cccc2c1Oc1cccc([N+](=O)[O-])c1O2 has a reported TGI of 37.4 µM

For this molecule ( Cc1ccc(-c2c3c(nn2-c2ccc(S(=O)(=O)NC(=O)NC4CCCCC4)cc2)-c2ccccc2C3)cc1 ), measured TGI is 42.4 µM

----------
test system: SNB-75 CNS; assay: NCI tumour cell line growth inhibition, 48 h
# maps each entry to its TGI

Some molecules with known TGI results, for comparison:
CNCC(=O)NC(CO)C(=O)NC(CO)C(=O)NC1C(C(N)=O)OC(n2ccc(N)nc2=O)C(O)C1O (configuration not stated); 8.92 µg/mL
COc1ccc2nc3n(c2c1)C(c1c(F)cccc1F)SC3 (configuration not stated); > 100 µM

Sample C=CCC(N[C@H](CO)c1ccccc1)c1ccccn1 (some centres not stated) ; TGI observed: > 100 µM

TGI measured on N#CC(C(=N/O)/C(=N\O)C(C#N)c1ccccc1)c1ccccc1 (configuration not stated) = > 100 µM

Reported TGI of C[C@H](c1ccccc1)n1c(N)c(-c2nc3ccccc3s2)c2ccc([N+](=O)[O-])cc2c1=O : > 91.7 µM

TGI reported for this molecule O=CC(O)C(O)C1OC(=O)c2cc(O)c(O)c(O)c2C2=C(O)C(O)=C3OC(=O)c4c(c(O)c(O)c5c4C3C2C(=O)O5)-c2c(cc(O)c(O)c2O)C(=O)OCC1O (configuration not stated) : > 100 µM

Entry O=C1CC(Cc2n[nH]c3c2CCCC3)CC(=O)N1 , TGI reported as > 100 µM

get_value(item= CN(C)c1cccc(OC(=O)NCCCl)c1 , readout=TGI) returns > 100 µM

Record Nn1c(-c2cccc(Cl)c2)nc2ccccc2c1=O . Reported TGI: > 100 µM

The recorded TGI for NC(Cc1cccnn1)C(=O)O (configuration not stated) is > 100 µM

Value of TGI reported for the molecule CC(C)(C)n1c(=O)n(-c2ccccc2)n(C(C)(C)C)c1=O is > 100 µM

So for CC1(C2COC(=O)C2)SCCCS1 (configuration not stated) , the logged TGI turned out to be > 100 µM

----------
tested on: COLO 205 colon; assay: NCI tumour cell line growth inhibition, 48 h
READOUT: TGI

// worked examples, TGI included
Cc1ccc(C)n2c1nc1cc3ccccc3cc12; > 100 µM
CCCCCCCCC(C)CCCCCCCCC(=O)OCC(COP(=O)([O-])OCC[N+](C)(C)C)OC(=O)CCCCCCCCC(C)CCCCCCCC (centres undefined); > 100 µM
C=CCC(N[C@H](CO)c1ccccc1)c1ccccn1 (some centres undefined); > 100 µM

The record that follows has no TGI shown yet.
Value of TGI reported for the compound COc1ccc(-c2c(-c3ccccc3)c(C)nc3[nH]c(=S)[nH]c(=S)c23)cc1OC is 72.1 µM

----------
Catalogue of compounds with associated TGI
tested on: CCRF-CEM leukemia; assay: NCI tumour cell line growth inhibition, 48 h

COC(=O)CSc1nc2[nH]c(SC)c(C(N)=O)c2c(=O)n1-c1ccccc1; > 10 µM
NCCCC(N=Cc1nc(-c2ccccc2)oc1O)C(=O)O (stereo not given); > 100 µM

TGI in this record for CN(/N=C/C=N/N(C)C1=NCCCN1)C1=NCCCN1 : > 100 µM

get_value(item= COc1ccc(NC(=O)c2oc3cc(O)ccc3c(=O)c2C)c([N+](=O)[O-])c1 , readout=TGI) returns > 100 µM

// recorded TGI for O=[N+]([O-])c1ccc(C2SCc3nc4ccccc4n32)cc1 (stereo not given) : > 100 µM

----------
test system: COLO 205 colon; experiment: NCI tumour cell line growth inhibition, 48 h
READOUT: TGI

# TGI of CC(C)N1C(C)[C@@H](c2ccccc2)O[P@@]1(=O)CC1=CCCCC1 (stereo partly specified) = > 100 µM

So, CC1(C2COC(=O)C2)SCCCS1 (stereo unspecified) ? Its TGI was > 100 µM

Per the record, O=C1CC(Cc2n[nH]c3c2CCCC3)CC(=O)N1 has TGI of > 100 µM

Query COc1ccc(NC(=O)c2oc3cc(O)ccc3c(=O)c2C)c([N+](=O)[O-])c1 yields TGI of > 100 µM

For N#CC(C(=N/O)/C(=N\O)C(C#N)c1ccccc1)c1ccccc1 (stereo unspecified) the compound record lists TGI as > 100 µM

Just so you know, measured TGI for O=C1C[C@@H]2[C@@H](c3ccccc3)[C@@H]3C(=O)c4ccccc4NC(=O)[C@H]3[C@]2(O)c2ccccc2N1 came out at > 100 µM

The recorded TGI for entry CCN(CC)S(=O)(=O)c1cccc(-c2ccc3c(NC(=O)C4CC4)n[nH]c3c2)c1 equals > 6.25 µM

Measured TGI of CNC(=O)CCCNC(=O)CCCCC(=O)N(C)C : > 100 µM

Briefly, TGI measured for COc1ccc(CCc2ccc3c(c2)OCO3)cc1 : > 100 µM

For this compound ( Cc1ccc(-c2c3c(nn2-c2ccc(S(=O)(=O)NC(=O)NC4CCCCC4)cc2)-c2ccccc2C3)cc1 ), measured TGI is 30.4 µM

Summary for this compound, COC1(OC)N=C(N)C2(C#N)C(C)=C3NCN(C)N=C3C12C#N (stereo unspecified) : TGI is > 100 µM

Lab book: TGI of CC1=CC(C)(C)Nc2ccc(Cc3ccc4c(c3)C(C)=CC(C)(C)N4)cc21 noted as 45.2 µM

TGI measured on COc1ccc(C[C@@H](C(=O)O[C@H](C)[C@H](NC(=O)[C@@H](CC(C)C)N(C)C(=O)C2CCCN2C(=O)[C@H](C)O)C(=O)N2CCCCNC(=O)[C@@H](C)C(=O)[C@H](C(C)C)OC(=O)C[C@H](O)[C@H]2CC(C)C)N(C)C(C)=O)cc1 (stereo partly specified) = 14.8 µM

Lab book: TGI of CCC[n+]1cc2cc3c(cc2c2c1-c1cc4c(cc1C2)OCO4)OCO3 (tested in a mixture with another compound) noted as 3.79 µM

The compound CCCCSc1nc(N)c2cn[nH]c2n1 showed TGI equal to 48.8 µM

Reported TGI for CCOC(=O)N/N=C(\CC)NO was > 100 µM
